target: UniProt P46616
readout.label: Ki (µM)

smiles.string: Cn1c(=O)c2c(nc(-c3ccccc3)n2C)n(C)c1=O
assay.system: UniProt P46616
unit.of.measure: µM
Ki: 27
--
smiles.string: Cc1nc2c(=O)n(C)c(=O)n(C)c2[nH]1
assay.system: UniProt P46616
unit.of.measure: µM
Ki: 14
--
smiles.string: Cn1c(=O)c2[nH]c(-c3cccc(O)c3)nc2n(C)c1=O
assay.system: UniProt P46616
unit.of.measure: µM
Ki: 1
--
smiles.string: CCCn1c(=O)c2nc(-c3ccc(O)cc3)[nH]c2n(CCC)c1=O
assay.system: UniProt P46616
unit.of.measure: µM
Ki: 0.05

(A) CCCn1c(=O)c2[nH]c(-c3ccc(Cl)cc3N)nc2n(CCC)c1=O
(B) Cn1c(=O)c2[nH]c(-c3ccc(N)cc3)nc2n(C)c1=O
query: Response body: label of entry with the larger Ki; valid values A , B . Answer by stating the label of the chosen item.
result: A

---

For reference, Ki measured on Adenosine receptor A2a (Cavia porcellus, UniProt P46616):

Consider the following illustrative entries.
smiles.string: Cn1c(=O)c2nc(-c3ccccc3C(=O)O)[nH]c2n(C)c1=O
assay.system: Adenosine receptor A2a (Cavia porcellus, UniProt P46616)
Sequence (P46616 whole entry): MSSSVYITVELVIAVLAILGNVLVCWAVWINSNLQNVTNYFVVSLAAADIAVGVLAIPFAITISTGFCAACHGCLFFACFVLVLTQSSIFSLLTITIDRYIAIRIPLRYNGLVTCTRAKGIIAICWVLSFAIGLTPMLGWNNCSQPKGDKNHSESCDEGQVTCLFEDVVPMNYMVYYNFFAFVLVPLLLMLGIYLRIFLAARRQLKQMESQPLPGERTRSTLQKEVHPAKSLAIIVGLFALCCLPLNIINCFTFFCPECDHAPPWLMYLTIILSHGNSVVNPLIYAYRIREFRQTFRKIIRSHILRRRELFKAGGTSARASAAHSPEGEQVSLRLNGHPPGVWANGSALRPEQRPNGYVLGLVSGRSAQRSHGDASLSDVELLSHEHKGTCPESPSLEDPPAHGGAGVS
Ki: > 30 µM
//
smiles.string: Cn1c(=O)c2[nH]c(-c3cccc(N)c3)nc2n(C)c1=O
assay.system: Adenosine receptor A2a (Cavia porcellus, UniProt P46616)
Ki: 0.9 µM

# ---- query molecule ----
Entry `CC(C)CCn1c(=O)c2nc(-c3ccccc3)[nH]c2n(CC(C)C)c1=O` , tested on Adenosine receptor A2a (Cavia porcellus, UniProt P46616), has a reported Ki of > 10 µM
